Origin of values: the supplement of paper PMC9112550

Test system: Escherichia coli TOP10;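 further: peptides expressed intracellularly from a pBAD plasmid library in pooled LB shake-flask culture, induced with 0.3% L-arabinose, DNA abundance read by NGS, three biological replicates, DESeq2 with apeglm shrinkage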
Experiment: shrunken log2 fold change of peptide-encoding DNA abundance (4.5 h post-induction vs induction); higher = less antimicrobial activity (less host growth inhibition)
Details: time post-induction: 4.5 h; library: site-saturation at positions 5, 18, 19, 20
For each of the sequences below, state its shrunken log2 fold change.
Answers are plain numbers.

Use these answered entries as a reference point.
- biosequence: "RRIRVRPPRLPRPRPRPIYHPRP"
  shrunken log2 fold change: -0.461
- biosequence: "RRIRMRPPRLPRPRPRPLMDPRP"
  shrunken log2 fold change: 1.24
- biosequence: "RRIRIRPPRLPRPRPRPCYVPRP"
  shrunken log2 fold change: -0.411

Please give shrunken log2 fold change for each item listed below.
1. RRIRIRPPRLPRPRPRPNRTPRP
2. RRIRARPPRLPRPRPRPAHMPRP
3. RRIRNRPPRLPRPRPRPGLNPRP
4. RRIRCRPPRLPRPRPRPLVFPRP

**A:**
1. 0.101
2. -0.114
3. 0.035
4. -0.317

Please give shrunken log2 fold change for each item listed below.
1. RRIRQRPPRLPRPRPRPAQCPRP
2. RRIRSRPPRLPRPRPRPWFIPRP
3. RRIRWRPPRLPRPRPRPSADPRP

**A:**
-0.017
-0.311
0.115
